Target: 1-deoxy-D-xylulose 5-phosphate reductoisomerase (Mycobacterium tuberculosis, UniProt P9WNS1)
Sequence (P9WNS1 whole entry): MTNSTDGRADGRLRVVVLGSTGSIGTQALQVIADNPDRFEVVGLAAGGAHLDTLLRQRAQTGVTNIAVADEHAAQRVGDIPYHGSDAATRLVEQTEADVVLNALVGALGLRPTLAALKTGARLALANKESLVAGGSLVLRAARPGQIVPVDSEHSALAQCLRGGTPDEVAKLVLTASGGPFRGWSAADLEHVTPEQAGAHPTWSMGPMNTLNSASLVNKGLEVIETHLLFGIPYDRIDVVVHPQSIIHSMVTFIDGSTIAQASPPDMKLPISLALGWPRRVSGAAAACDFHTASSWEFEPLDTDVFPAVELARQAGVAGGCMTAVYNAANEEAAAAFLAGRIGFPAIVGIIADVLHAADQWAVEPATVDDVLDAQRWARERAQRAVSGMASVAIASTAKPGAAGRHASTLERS
Test: Inhibition of recombinant Mycobacterium tuberculosis IspC expressed in Escherichia coli M15 using 1-deoxy-D-xylulose 5-phosphate as substrate by photometric assay
# label = bin(measured IC50), where bins are 0 = under 8 µM, 1 = from 8 µM up to 100 µM, 2 = 100 µM and over

Query block: Form: Item = CN(O)C(=O)CSC(c1cc(F)cc(F)c1)P(=O)(O)O (racemic) ; Class = ?
Result block: 0

Query block: In plain terms, what class is CN(O)C(=O)CS(=O)(=O)C(c1ccccc1)P(=O)(O)O (stereo not drawn) ?
Result block: 2

Query block: Returns: class label. Input: COc1cc(OC)cc(C(SCC(=O)N(C)O)P(=O)(O)O)c1 (racemic)
Result block: 0

Query block: Band for O=C(CSC(c1cc(F)cc(F)c1)P(=O)(O)O)NO (racemic) ?
Result block: 0

Query block: Returns: class label. Input: CN(O)C(=O)CS(=O)(=O)C(c1cccc2ccccc12)P(=O)(O)O (stereo not drawn)
Result block: 2

Query block: Which class holds CN(O)C(=O)CS(=O)(=O)C(c1ccc(Cl)c(Cl)c1)P(=O)(O)O (stereo not drawn) ?
Result block: 1

Query block: Band of COc1cc(OC)cc(C(SCC(=O)NO)P(=O)(O)O)c1 (racemic) ?
Result block: 1

Query block: Band assignment needed for Cc1ccc(C(P(=O)(O)O)S(=O)(=O)CC(=O)NO)cc1 (stereo not drawn) please.
Result block: 2

Query block: For the record CN(O)C(=O)CS(=O)(=O)C(c1cc(F)cc(F)c1)P(=O)(O)O (stereo not drawn) , report the class its IC50 corresponds to.
Result block: 1

Query block: Please let me know in which category the item COc1cc(OC)cc(C(P(=O)(O)O)S(=O)(=O)CC(=O)N(C)O)c1 (stereo not drawn) belongs.
Result block: 2

Query block: Which category fits this record: COc1cc(OC)cc(C(P(=O)(O)O)S(=O)(=O)CC(=O)NO)c1 (stereo not drawn)
Result block: 2

Query block: The entry to classify is Cc1ccc(C(P(=O)(O)O)S(=O)(=O)CC(=O)N(C)O)cc1 (stereo not drawn) ; which class holds it?
Result block: 2

###

Test system: Plasmodium falciparum
Assay: Antimalarial activity against asexual blood stages of Plasmodium falciparum Dd2 infected in human erythrocytes incubated for 3 days by ELISA
Assay type: functional, organism-based
Conditions: Dd2, 72 h
assay endpoint: pIC50
The meaning of pIC50 here: minus log10 of the concentration in molar units.

Query block: Looking for the measured pIC50 of CN(O)C(=O)CSC(c1cc(F)cc(F)c1)P(=O)(O)O (racemic) , can you help?
Result block: 6.89

Query block: Query (compound): O=C(CSC(c1cc(F)cc(F)c1)P(=O)(O)O)NO (racemic) ; field requested: pIC50
Result block: 6.06

Query block: Entry under review: Cc1ccc(C(SCC(=O)NO)P(=O)(O)O)cc1 (racemic) . Reported pIC50?
Result block: 5.10

Query block: Fill in: pIC50 of COc1cc(OC)cc(C(SCC(=O)NO)P(=O)(O)O)c1 (racemic) is ___
Result block: 6.57

Query block: Param item = CN(O)C(=O)CS[C@@H](c1ccccc1)P(=O)(O)O ; retrieve measured pIC50.
Result block: 6.85

Query block: So what does the record say about pIC50 for CN(O)C(=O)CSC(c1ccccc1)P(=O)(O)O (racemic) ?
Result block: 6.59

Query block: Recorded pIC50 for COc1cc(OC)cc(C(SCC(=O)N(C)O)P(=O)(O)O)c1 (racemic) , please?
Result block: 6.74

###

Test system: Plasmodium falciparum
Test: Antimalarial activity against asexual blood stages of Plasmodium falciparum 3D7 infected in human erythrocytes incubated for 3 days by ELISA
Type: functional, organism-based
Details: 3D7, 72 h
Record form. Attribute: IC50. Fill in for each entry.

Query block: Fill in the blank: the reported IC50 of Cc1ccc(C(P(=O)(O)O)S(=O)(=O)CC(=O)NO)cc1 (stereo unspecified) is ____.
Result block: > 100 µM

Query block: Find the recorded IC50 belonging to CN(O)C(=O)CS(=O)(=O)C(c1ccccc1)P(=O)(O)O (stereo unspecified) and report it.
Result block: > 100 µM

Query block: Returns the measured IC50 for the input compound. Input: COc1cc(OC)cc(C(P(=O)(O)O)S(=O)(=O)CC(=O)N(C)O)c1 (stereo unspecified)
Result block: > 100 µM

Query block: Consider the compound shown here: CN(O)C(=O)CS[C@H](c1ccccc1)P(=O)(O)O What is its recorded IC50?
Result block: > 130 µM

Query block: Data request, read-out IC50, for Cc1ccc(C(P(=O)(O)O)S(=O)(=O)CC(=O)N(C)O)cc1 (stereo unspecified)
Result block: > 100 µM

Query block: Reported IC50, compound CN(O)C(=O)CS(=O)(=O)C(c1ccc(Cl)c(Cl)c1)P(=O)(O)O (stereo unspecified) : ____
Result block: > 100 µM
